These entries and their values trace back to patent US7691844B2.

- Assay target: V1a (Homo sapiens, UniProt P37288)
- Sequence (P37288 whole entry): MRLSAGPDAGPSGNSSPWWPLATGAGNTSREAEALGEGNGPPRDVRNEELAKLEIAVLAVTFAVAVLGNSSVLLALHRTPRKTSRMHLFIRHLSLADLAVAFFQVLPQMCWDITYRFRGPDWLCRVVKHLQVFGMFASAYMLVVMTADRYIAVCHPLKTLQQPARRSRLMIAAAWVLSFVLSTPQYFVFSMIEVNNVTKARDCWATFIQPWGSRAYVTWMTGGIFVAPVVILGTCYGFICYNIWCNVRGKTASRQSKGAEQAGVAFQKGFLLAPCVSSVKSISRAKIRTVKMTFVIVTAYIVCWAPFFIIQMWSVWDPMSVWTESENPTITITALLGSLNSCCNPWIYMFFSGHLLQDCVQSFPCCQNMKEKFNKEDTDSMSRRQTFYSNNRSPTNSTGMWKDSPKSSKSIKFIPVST
- Assay details: In-vitro receptor binding assay (3H-arginine-8-vasopressin), V1a
- Test settings: @ 0.1 μM; read-out: Receptor Binding V1a (% Inh. @ concentration in μM)
Measured metric: inhibition at 0.1 µM (%)

CN(C)CCNC(=O)C1=CC2(CC1)CCN(C(=O)c1ccc(-n3ccc(C=O)c3)cc1)c1ccccc1C2 (stereo not drawn): 44
Cc1ccn(-c2ccc(C(=O)N3CCC4(C=C(C(=O)N5CCN(C)CC5)CC4)Cc4ccccc43)cc2N(C)C)n1 (stereo not drawn): 48
CCCCC(=O)N1CCC(Oc2ccc(C(=O)N3CCC4(C=CCCC4)Cc4ccccc43)cc2F)CC1 (stereo not drawn): 0
COC(=O)C1=CC2(CC1)CCN(C(=O)c1ccc(-n3ccc(C(C)=O)c3)c(OC)c1)c1ccccc1C2 (stereo not drawn): 64
COC(=O)CN1CCC(Oc2ccc(C(=O)N3CCC4(C=CCCC4)Cc4ccccc43)cc2F)CC1 (stereo not drawn): 4

(P) CCCCN1CCC(Oc2ccc(C(=O)N3CCC4(C=CCCC4)Cc4ccccc43)cc2F)CC1 (stereo not drawn)
(Q) CC(C)CCN1CCC(Oc2ccc(C(=O)N3CCC4(C=CCCC4)Cc4ccccc43)cc2F)CC1 (stereo not drawn)
(R) O=C(Nc1ccc(C(=O)N2CCC3(C=C(C(=O)N4CCN(c5ccncc5)CC4)CC3)Cc3ccccc32)cc1)c1ccccc1-c1ccccc1 (stereo not drawn)
(S) Cc1ccn(-c2ccc(C(=O)N3CCC4(C=C(C(=O)N5CCN(C)CC5)CC4)Cc4ccccc43)cc2)n1 (stereo not drawn)
// query Arrange items by their inhibition at 0.1 µM values in increasing order. The response must list the labels following the requested ordering.
// result Q, P, S, R
(Q: 0%, P: 24%, S: 42%, R: 66%)

(A) COC(=O)C1=CC2(CC1)CCN(C(=O)c1ccc(N)cc1)c1ccccc1C2 (stereo not drawn)
(B) Cc1ccc(F)cc1C(=O)Nc1ccc(C(=O)N2CCC3(C=C(C=O)CC3)Cc3ccccc32)c(Cl)c1 (stereo not drawn)
// query Which one would you say has the larger inhibition at 0.1 µM value: A , or B ? Pick one; state its label.
// result B

(I) Cc1ccc(F)cc1C(=O)Nc1ccc(C(=O)N2CCC3(C=C(C(=O)O)CC3)Cc3ccccc32)c(Cl)c1 (stereo not drawn)
(II) CCOC(=O)Oc1c(OC)cc(C(=O)N2CCC3(C=C(C(=O)OC)CC3)Cc3ccccc32)cc1OC (stereo not drawn)
(III) COC(=O)C1=CC2(CC1)CCN(C(=O)c1cc(OC)c(OC)c(OC)c1)c1ccccc1C2 (stereo not drawn)
(IV) O=C(Nc1ccc(C(=O)N2CCC3(C=C(C(=O)N(CCN4CCOCC4)CCN4CCOCC4)CC3)Cc3ccccc32)cc1)c1ccccc1-c1ccccc1 (stereo not drawn)
// query Sort the 4 molecules by inhibition at 0.1 µM; largest first, smallest last. In plain terms: list the labels in the order you were asked to.
// result IV, I, III, II
(IV: 48%, I: 10%, III: 3%, II: 0%)
